- System under test: PLK1 (Homo sapiens, UniProt P53350)
- Sequence (P53350 whole entry): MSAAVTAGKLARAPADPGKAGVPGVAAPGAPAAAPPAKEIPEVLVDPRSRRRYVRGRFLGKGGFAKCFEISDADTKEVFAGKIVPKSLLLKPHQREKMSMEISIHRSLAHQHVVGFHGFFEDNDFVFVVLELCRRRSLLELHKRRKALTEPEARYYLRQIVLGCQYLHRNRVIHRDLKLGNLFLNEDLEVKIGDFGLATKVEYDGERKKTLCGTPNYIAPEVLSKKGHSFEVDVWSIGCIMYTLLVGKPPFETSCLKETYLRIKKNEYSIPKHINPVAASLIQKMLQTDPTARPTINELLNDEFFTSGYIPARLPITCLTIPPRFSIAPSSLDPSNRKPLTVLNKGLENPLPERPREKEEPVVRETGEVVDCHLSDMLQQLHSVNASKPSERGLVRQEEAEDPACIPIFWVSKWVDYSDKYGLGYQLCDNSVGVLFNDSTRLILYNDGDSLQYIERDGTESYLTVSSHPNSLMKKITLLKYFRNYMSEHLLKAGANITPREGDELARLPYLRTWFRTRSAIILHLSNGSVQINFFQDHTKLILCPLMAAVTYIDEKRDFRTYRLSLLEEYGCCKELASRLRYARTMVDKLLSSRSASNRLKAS
- Procedure summary: Cellular PLK1 assay in K562 cells overexpressing CDC25C
- Type: cell-based
- Set-up: endogenous in cells; host or cells: K562 (human chronic myelogenous leukemia) overexpressing CDC25C, nocodazole-arrested
- Reported conditions: nocodazole arrested, cdc25c p-Ser198 readout
Property: IC50

# input For PLK1 (Homo sapiens, UniProt P53350), provide IC50 of CN1CCN(c2ccc(Nc3ncc(F)c(Nc4ccc5c(n4)NCCO5)n3)cc2)CC1 please.
# output ≥ 10 µM

# input For PLK1 (Homo sapiens, UniProt P53350), provide IC50 of Cc1cc(Nc2ncc(F)c(Nc3ccc4c(n3)N(Cc3ccccc3)C(=O)CO4)n2)ccc1N1CCN(C)CC1 please.
# output 0.5 to 5 µM

# input For PLK1 (Homo sapiens, UniProt P53350), provide IC50 of Cc1cnc(Nc2cccc(N3CCN(C)CC3)c2)nc1Nc1ccc2c(n1)N(CC1CCC1)C(=O)CO2 please.
# output 0.5 to 5 µM

# input For PLK1 (Homo sapiens, UniProt P53350), provide IC50 of Cc1cc(Nc2ncc(C)c(Nc3ccc4c(n3)N(CC3CCC3)C(=O)CO4)n2)ccc1N1CCN(C)CC1 please.
# output ≥ 10 µM

# input For PLK1 (Homo sapiens, UniProt P53350), provide IC50 of CCCN1C(=O)COc2ccc(Nc3nc(Nc4ccc(N5CC6CC5CN6C)c(C)c4)ncc3C)nc21 (stereo not drawn) please.
# output 0.5 to 5 µM

# input For PLK1 (Homo sapiens, UniProt P53350), provide IC50 of CCCN1C(=O)COc2ccc(Nc3nc(Nc4ccc(N5CCN(S(C)(=O)=O)CC5)c(C(F)(F)F)c4)ncc3F)nc21 please.
# output ≥ 10 µM

# input For PLK1 (Homo sapiens, UniProt P53350), provide IC50 of CCOc1ccc(N2CCN(C)CC2)cc1Nc1ncc(F)c(Nc2ccc3c(n2)NCCO3)n1 please.
# output < 0.5 µM

# input For PLK1 (Homo sapiens, UniProt P53350), provide IC50 of CN1CCN(c2cccc(Nc3ncc(F)c(Nc4ccc5c(n4)NCCO5)n3)c2)CC1 please.
# output < 0.5 µM

# input For PLK1 (Homo sapiens, UniProt P53350), provide IC50 of CCCN1C(=O)COc2ccc(Nc3nc(Nc4ccc(N5CC6CC5CN6C(C)=O)c(C)c4)ncc3F)nc21 (stereo not drawn) please.
# output 0.5 to 5 µM

# input For PLK1 (Homo sapiens, UniProt P53350), provide IC50 of COc1ccc(CN2C(=O)COc3ccc(Nc4nc(Nc5cccc(N6CCN(C)CC6)c5)ncc4C)nc32)cc1 please.
# output ≥ 10 µM

# input For PLK1 (Homo sapiens, UniProt P53350), provide IC50 of CN1CCN(c2cc(Nc3ncc(F)c(Nc4ccc5c(n4)NC(=O)CO5)n3)cc(OC(C)(C)C)c2)CC1 please.
# output < 0.5 µM

# input For PLK1 (Homo sapiens, UniProt P53350), provide IC50 of CN1CCN(c2cccc(Nc3nccc(Nc4ccc5c(n4)NCCO5)n3)c2)CC1 please.
# output ≥ 10 µM

# input For PLK1 (Homo sapiens, UniProt P53350), provide IC50 of CN1CCN(c2cccc(Nc3ncc(F)c(Nc4ccc5c(n4)N(Cc4ccc(F)cc4)C(=O)CO5)n3)c2)CC1 please.
# output 0.5 to 5 µM

# input For PLK1 (Homo sapiens, UniProt P53350), provide IC50 of COc1cnc(Nc2cccc(N3CCN(C)CC3)c2)nc1Nc1ccc2c(n1)NCCO2 please.
# output 0.5 to 5 µM

# input For PLK1 (Homo sapiens, UniProt P53350), provide IC50 of Cc1cc(Nc2ncc(C)c(Nc3ccc4c(n3)N(Cc3ccccc3)C(=O)CO4)n2)ccc1N1CCN(C)CC1 please.
# output 0.5 to 5 µM
